- ASSAY_PROTOCOL: Human HepG2 cell viability assay in 384 well format
- Type: toxicity, cell-based
- Design: dose 125 nL, time 70.5 hour; concentration not given beside the values
- PROTOCOL_CONDITIONS: HepG2 cells, read-out: Inhibition
REPORTED_ENDPOINT: cytotoxicity at 70.5 h (%)
Numeric answer only, unit % assumed.

Solved entries (count: 5):
O=C(CCn1ccnn1)N1CCCC(n2cncn2)C1 (centres undefined) = -6.6
Cc1cc(Nc2ccc3c(c2)CC(=O)N3)nc(C(C)C)n1 = -6.82
CCN(CC)C(=O)c1ccc(Cl)c(NC(=O)c2cc[nH]n2)c1 = 13.3
O=C(NCC1CC1)C1CN(C(=O)Nc2ccccc2)CC12CCOCC2 (centres undefined) = -5.6
Cc1cn2c(CN(C)C(=O)c3nccnc3N)c(C)nc2s1 = 0.596

# input Consider the molecule CN(Cc1ccncc1)CC1CCCN(CCc2ccc(Cl)cc2)C1 (centres undefined) and give its measured cytotoxicity at 70.5 h.
# output -0.313

# input What does the data say about its cytotoxicity at 70.5 h? Entry: Cc1cc(OCc2cccc(F)c2)ccc1NC(=O)C(C)NC(N)=O (centres undefined)
# output 5.5

* * *

This section presents molecules with their documented cytotoxicity at 70.5 h values.
- ASSAY_PROTOCOL: Human HepG2 cell viability assay in 384 well format
- Assay type: toxicity, cell-based
- Design: dose 125 nL, time 70.5 hour; concentration not given beside the values
- PROTOCOL_CONDITIONS: HepG2 cells, read-out: Inhibition
Answer in %, number only, no unit symbol.

CCCNC(=O)c1ccc(-c2ccco2)[nH]c1=O = -2.1

# input What value of cytotoxicity at 70.5 h has been recorded for this entry: `Cc1cc(C(=O)N(C)Cc2ccoc2)c(NC(=O)C(C)(C)C)s1`
# output -3.77

# input Record request: cytotoxicity at 70.5 h value, item `O=C(CCc1ccccc1)N[C@H]1CC[C@@]2(CCC(=O)N2)CC1`
# output -8.44

# input Tell me the measured cytotoxicity at 70.5 h of `CCS(=O)(=O)N1CC[C@H](OC)[C@@H]1Cc1ccncc1` , please.
# output 3.22

# input // lookup cytotoxicity at 70.5 h for CC(C(=O)Nc1ccc(N2CCCC2)nc1)n1cccn1 (stereo unspecified)
# output -0.411

# input cytotoxicity at 70.5 h lookup needed for `O=C([C@H]1CCCO1)N1CC[C@H](O)[C@@H]1Cc1ccncc1` , thanks.
# output 1.55

# input Would you mind telling me what cytotoxicity at 70.5 h value was observed for Cc1ccc(CNC(C)c2ccc(N3CCN(C)CC3)c(F)c2)o1 (stereo unspecified) ?
# output 0.0517

# input What cytotoxicity at 70.5 h value was documented for this molecule, `CCN(Cc1nc(COC)no1)C[C@]1(O)CCCN2CCCC[C@@H]21` ?
# output -10.1

# input Can you share its cytotoxicity at 70.5 h? I mean this molecule: `O=C(CN1CCC(c2ccccc2)CC1)NCc1cc2n(n1)CCNC2`
# output -10.6

# input Field request: cytotoxicity at 70.5 h | item: CC(c1ccc(C(F)(F)F)cc1)N1CCN(CCS(C)(=O)=O)CC1 (stereo unspecified)
# output -1.96

# input Which measured cytotoxicity at 70.5 h value corresponds to `Cc1ccccc1Cn1nnc2cc3c(cc2c1=O)OCCO3` ?
# output -9.38

* * *

- ASSAY_PROTOCOL: Human HepG2 cell viability assay in 384 well format
- Format: toxicity, cell-based
- Design: dose 125 nL, time 70.5 hour; concentration not given beside the values
- PROTOCOL_CONDITIONS: HepG2 cells, read-out: Inhibition
Quick reference: cytotoxicity at 70.5 h of the listed items.
Give the value, in units of %, as a plain number.

These recorded examples may help you get a feel for the data.
CN1C(=O)CC(c2cnn(C)c2)C12CCN(C(=O)C1CC=CC1)CC2 (stereo unspecified) = -6.39
CCOCc1nc(N2CCCC2)sc1C(=O)NCCC(=O)OCC = -6
COc1ccccc1OCc1cc(C(=O)N2C[C@H](O)[C@@H](N(C)C)C2)n[nH]1 = -4.57
Cc1ccc(N2CCCC(NC(=O)Cc3csc(C)n3)C2=O)cc1 (stereo unspecified) = -0.932
COc1ccc2c(c1)C(=O)NC1(CC2)CCN(Cc2ccccn2)C1 (stereo unspecified) = -1

Turning now to a further molecule:
# input Item under review: CSc1ccc(C(C)NC(=O)c2cc(C)on2)cc1 (stereo unspecified) . Reported cytotoxicity at 70.5 h?
# output -4.63

* * *

cytotoxicity at 70.5 h reference
- ASSAY_PROTOCOL: Human HepG2 cell viability assay in 384 well format
- Assay type: toxicity, cell-based
- Set-up: dose 125 nL, time 70.5 hour; concentration not given beside the values
- PROTOCOL_CONDITIONS: HepG2 cells, read-out: Inhibition
Give the quantity in %, number only.

CC(C)Oc1ccc(CN2CCN3CCN(C)CC3C2)cc1CO (centres undefined) = -5.57
Cc1cc(=O)[nH]c(=O)n1Cc1ncc(-c2ccccc2C(=O)O)s1 = -0.441
Cc1cccnc1CN1CCC(c2nnc(Cn3cccn3)n2C)CC1 = -7.96
CNc1cc(C2CN(Cc3scnc3C)CCO2)nc(C)n1 (centres undefined) = 98.7
Cc1nc(CN2CCCN(CC(=O)Nc3cccnc3)CC2)no1 = 7.78

# input // cytotoxicity at 70.5 h lookup, key: `NS(=O)(=O)NCC1(c2ccccc2Br)CC1`
# output 0.0399

* * *

- ASSAY_PROTOCOL: Human HepG2 cell viability assay in 384 well format
- Assay type: toxicity, cell-based
- Parameters: dose 125 nL, time 70.5 hour; concentration not given beside the values
- PROTOCOL_CONDITIONS: HepG2 cells, read-out: Inhibition
REPORTED_ENDPOINT: cytotoxicity at 70.5 h (%)
The response must be a number in % with no trailing unit.

O=C(c1n[nH]c(=O)c2ccccc12)N1CCC(O)(CN2CCOCC2)C1 (stereo unspecified) = 14.5
Cc1cc(C)n(CCNCc2cc(-c3ccc(Cl)cc3)c[nH]c2=O)n1 = -3.88
Cc1cc(C)n(C2CCCN(C(=O)c3ccc(NC4CC4)nc3)C2)n1 (stereo unspecified) = -0.521
CCN1CCC(NC(=O)CN2CCCC2Cn2cc(C)cn2)CC1 (stereo unspecified) = 0.649
O=C1CCC(C(=O)NCCOc2cccc(Cl)c2Cl)CN1 (stereo unspecified) = -13.1

# input What measured cytotoxicity at 70.5 h goes with `Cc1nn(Cc2ccc(C(=O)NCCCN3CCCC3=O)o2)c(C)c1Cl` ?
# output -10.6

# input Item under review: `Cc1nc(NC(=O)COCC(F)(F)F)ccc1Br` . Reported cytotoxicity at 70.5 h?
# output 1.69

# input Can you share its cytotoxicity at 70.5 h? I mean this molecule: CN(C)C(=O)C1CCc2nnc(C(C)(C)C)n21 (stereo unspecified)
# output -3.32

# input Return reported cytotoxicity at 70.5 h; argument: `COc1ccc(C(=O)N2CCC(Nc3ccc(C)nn3)CC2)cc1`
# output 0.696

# input Please look up its cytotoxicity at 70.5 h: `Cc1cnc(C(=O)N2C[C@H]3CN(Cc4cccnc4)C[C@H]3C2)cn1`
# output 6.07

# input Query: cytotoxicity at 70.5 h; subject: `NC(=O)CNC(=O)c1ccc(CNCc2ccc(F)cc2F)cc1`
# output -23.7

# input If you can, please state the reported cytotoxicity at 70.5 h value of `CCCOCC(=O)N1CCCN(Cc2csc(CC)n2)CC1` .
# output 6.02

# input Record request: cytotoxicity at 70.5 h value, item Cc1ccn2ncc(C(=O)N3CCCC(n4nc(C)nc4C)C3)c2n1 (stereo unspecified)
# output -5.04

# input # query: cytotoxicity at 70.5 h of entry `Cn1cccc1C(=O)N1CC[C@@H]2[C@@H]1CC(=O)N2CC1CCOCC1`
# output 0.858

# input I would be grateful if you could share the reported cytotoxicity at 70.5 h for `O=C(NCCN1CCCCC1)c1nc(-c2ccc3cc[nH]c3c2)no1` .
# output -4.34

# input What value of cytotoxicity at 70.5 h has been recorded for this entry: `Cc1ccc(N2CC[C@@H]3O[C@@H](COCc4cccnc4)CC[C@@H]32)nn1`
# output -3.24

# input Recorded cytotoxicity at 70.5 h for `COC(=O)NCC(=O)N1CCc2cc(Cl)cc(Cl)c2C1` , please?
# output -1.77

# input // cytotoxicity at 70.5 h lookup, key: `CCSc1cc(C(=O)NCCNC(=O)Cc2ccccc2)ccn1`
# output -117

# input What value of measured cytotoxicity at 70.5 h is listed for NC(=O)N1CCC2(CCN(Cc3ccccn3)C2=O)C1 (stereo unspecified) ?
# output -0.213

# input So what's the measured cytotoxicity at 70.5 h for this one? `O=S(=O)(c1cccs1)N1CC[C@H]2[C@H]1CCN2CC1CC1`
# output -9.72

# input Quick check: cytotoxicity at 70.5 h of Cc1cnc(C(=O)N2CCC(COCc3ccccc3)C2)cn1 (stereo unspecified) ?
# output -2.03

# input I have this molecule here, NC(=O)NCC1CCCCN1Cc1nc(-c2ccco2)no1 (stereo unspecified) , and I need its recorded cytotoxicity at 70.5 h.
# output -9.61

# input Could you share which cytotoxicity at 70.5 h value was measured for `COc1ccccc1C1(CNc2cc(C(=O)N(C)C)ccn2)CC1` ?
# output 0.399

# input Name the recorded cytotoxicity at 70.5 h for `COc1ccc(Oc2ncccc2C(N)=O)cc1CN1CCCC1` .
# output -7.33

# input Find the recorded cytotoxicity at 70.5 h belonging to Cc1csc(C(Cc2ccsc2)NC(=O)C2CCN(S(C)(=O)=O)CC2)n1 (stereo unspecified) and report it.
# output -10
